system: CCRF-CEM leukemia; assay: NCI-60 one-dose screen, 48 h (100 = growth as untreated, 0 = no growth, -100 = all killed); settings: 10 µM unless noted
About 83,000 compounds went through this panel and 20% of them were active in at least one assay; those are over-represented in the sample as a whole.
Provide the reported growth of each item.
Give bare numbers, in %.

| COMPOUND | MEASUREMENT_TARGET | MEASUREMENT_NAME | READOUT_VALUE |
| --- | --- | --- | --- |
| COc1ccc(CNc2c3ccccc3nc3ccccc23)cc1OC | CCRF-CEM leukemia | growth | 30.5 |
| COc1ccc(NC(=O)c2ccc(Cl)cc2Cl)cc1 | CCRF-CEM leukemia | growth | 106 |
| CCC(=C(c1ccc(OCCN(CC)CC)cc1)c1ccc(OCCN(CC)CC)cc1)c1ccc(Cl)cc1 | CCRF-CEM leukemia | growth | -65.3 |
| COC(=O)[C@H]1Cc2c([nH]c3ccccc23)[C@H](c2ccc3c(c2)OCO3)N1 | CCRF-CEM leukemia | growth | 96.4 |
| CCCCC1=C(Br)C(=O)c2ncccc2C1=O | CCRF-CEM leukemia | growth | 8.13 |
| Cc1c(CC(=O)Nc2ccccc2)nnn1-c1ccccc1 | CCRF-CEM leukemia | growth | 105 |
| CC1=NN(c2cccc(Cl)c2)C(=O)/C1=C\C=C\c1ccccc1 | CCRF-CEM leukemia | growth | 2.35 |
| O=C1/C(=C/c2cccc([N+](=O)[O-])c2)COc2ccc(O)c(O)c21 | CCRF-CEM leukemia | growth | 0.148 |

Hello, I would appreciate it if you could give growth for each entry below.
1. Clc1nc(N2CCC[N+]3(CC2)CC[N+]2(CCCNCC2)CC3)nc(N2CCC[N+]3(CC2)CC[N+]2(CCCNCC2)CC3)n1 (stereo unspecified)
2. Cc1ccc(C(=O)Nc2ccc(CN3CCN(C)CC3)c(C(F)(F)F)c2)cc1C#Cc1cnc(N)c2ccccc12
3. CCOC(=O)CC1CSC(N/N=C/c2ccc(O)cc2)=N1 (stereo unspecified)
4. C#C[C@]1(O)CC[C@H]2[C@@H]3CC=C4c5sc(-c6ccccc6)nc5CC[C@]4(C)[C@H]3CC[C@@]21C

## Result
[96.7, -15.7, 115, 67.4]

meta.source: PubChem BioAssay (NCI)
